molecular target: PTPN12/PTP-PEST (Homo sapiens, UniProt Q05209); construct: purchased Recation Biology Inc; test: Phosphatase panel, DiFMUP fluorescence assay; type: biochemical; conditions: Table 18B; read-out: inhibitory activity PTPN12/PTP-PEST
Sequence (Q05209 whole entry): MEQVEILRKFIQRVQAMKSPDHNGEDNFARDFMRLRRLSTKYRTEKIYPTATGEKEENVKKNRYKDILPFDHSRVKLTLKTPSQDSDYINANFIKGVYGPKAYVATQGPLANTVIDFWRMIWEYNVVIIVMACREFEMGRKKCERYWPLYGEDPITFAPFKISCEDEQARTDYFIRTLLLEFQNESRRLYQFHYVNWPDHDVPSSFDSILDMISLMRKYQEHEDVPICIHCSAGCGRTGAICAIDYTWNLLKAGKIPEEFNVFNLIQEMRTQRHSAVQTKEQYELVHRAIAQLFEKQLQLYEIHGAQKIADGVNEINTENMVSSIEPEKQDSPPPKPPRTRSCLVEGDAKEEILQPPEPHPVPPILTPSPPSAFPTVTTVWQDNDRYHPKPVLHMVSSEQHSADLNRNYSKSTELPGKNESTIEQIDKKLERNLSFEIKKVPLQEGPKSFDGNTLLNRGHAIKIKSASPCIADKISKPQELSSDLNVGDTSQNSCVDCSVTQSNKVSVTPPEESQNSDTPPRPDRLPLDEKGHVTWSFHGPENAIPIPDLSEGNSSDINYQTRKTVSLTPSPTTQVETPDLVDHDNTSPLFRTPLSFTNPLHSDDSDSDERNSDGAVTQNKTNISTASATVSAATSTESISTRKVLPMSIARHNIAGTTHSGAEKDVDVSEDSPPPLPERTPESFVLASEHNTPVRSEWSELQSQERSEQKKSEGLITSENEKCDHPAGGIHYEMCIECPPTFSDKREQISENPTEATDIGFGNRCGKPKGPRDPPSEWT
recorded-metric: IC50 (nM)
Give bare numbers, in nM.

Requested field: IC50. Item: CCc1oc2cc(S(=O)(=O)Nc3ccc(S(=O)(=O)Nc4nccs4)cc3)ccc2c1C(=O)c1cc(Br)c(O)c(Br)c1 [PTP1B Inhibitor, reference compound]
2160

----------
assay: Pharmacokinetic profile, intravenous administration; type: in vivo, male SD Rats; conditions: male, SD, rat, plasma, iv, 5 mg/kg, I.V. 5 mg/kg, Mean, read-out: MRTInf_obs
recorded-metric: MRT inf

Requested field: MRT inf. Item: CC(CCC[C@@H](C)[C@H]1CCC2C3C(CC[C@@]21C)[C@@]1(C)CC[C@H](NCCCNCCCCNCCCN)C[C@@H]1C[C@H]3O)C(=O)O (single isomer, unassigned) [ENT-03]
24.6 h
